system: sedge, umbrella; assay: Test D flooded paddy test; assay type: in vivo, Cyperus difformis; conditions: 250 g ai/ha, applied to paddy water, visual rating after 13 to 14 days, scale 0 to 100 (0 no effect, 100 complete control)
What Plant response rating, Sedge, Umbrella (Flood) was measured for each of the following?
Answers are plain numbers.

Dear colleague, I am looking for the recorded Plant response rating, Sedge, Umbrella (Flood) of the following compound: CCOCC1CN(C(=O)c2cc(-n3cnc(C(C)(C)C)n3)ccc2OC)c2cccc(Cl)c2O1 (stereo not shown)
65

Hi there! I need Plant response rating, Sedge, Umbrella (Flood) for each item below, if you can.
1. CC(C)c1ncn(-c2ccc(SC(F)(F)F)c(C(=O)N3C[C@H](C)Oc4c(Cl)cccc43)c2)n1
2. C[C@H]1CN(C(=O)c2cc(-n3cncn3)cc(C(F)(F)F)c2)c2cccc(Cl)c2O1

1: 0; 2: 35

Hi there! I need Plant response rating, Sedge, Umbrella (Flood) for each item below, if you can.
1. CSc1ccc(-n2cnc(C(C)C)n2)cc1C(=O)N1C[C@H](C)Oc2c(Cl)cccc21
2. CCOC(=O)c1ncn(-c2ccc(C)c(C(=O)N3C[C@H](C)Oc4c(Cl)cccc43)c2)n1
3. COC[C@H]1CN(C(=O)c2cc(-n3cnc(C4CCC4)n3)ccc2C)c2cccc(Cl)c2O1
4. CC(C)c1ncn(-c2cccc(C(=O)N3CC(C(F)(F)F)Oc4c(Cl)cccc43)c2)n1 (single isomer, unassigned)

1: 45; 2: 15; 3: 98; 4: 0

====

system: soybean; experiment: Test C preemergence; type: in vivo, Glycine max; details: Test C, preemergence, 125 g ai/ha; 0 to 100 scale (0 no effect, 100 complete control)
Use 70 as the dividing line for Soybean plant response rating, with the line itself on the 1 (yes) side and lower values as 0 (no).

In plain terms: is recorded Soybean plant response rating at least 70 for C[C@H]1CN(C(=O)c2cccc(-n3cnc(C(C)(C)O)n3)c2)c2cccc(Cl)c2O1 [Compound 169] ?
1 (yes)

Try Cc1ccc(-n2cnc(C3(C)CC3)n2)cc1C(=O)N1C[C@H](C)Oc2c(Cl)cccc21 [Compound 252] next.
0 (no)

Try CCn1cnc(-c2cccc(C(=O)N3C[C@H](C)Oc4c(Cl)cccc43)c2)n1 [Compound 173] next.
0 (no)

Try Cc1cccc2c1OC(C)CN2C(=O)c1cccc(-n2ncnc2C2CC2)c1 (racemic) [Compound 196] next.
0 (no)

Proceed to the following item.
In plain terms: is recorded Soybean plant response rating at least 70 for COC[C@H]1CN(C(=O)c2cc(-n3cnc(C4CC4)n3)ccc2C)c2cccc(Cl)c2O1 [Compound 266] ?
1 (yes)

====

tested on: pigweed, palmer; assay: Test C preemergence; type: in vivo, Amaranthus palmeri; conditions: Test C, preemergence, 125 g ai/ha; 0 to 100 scale (0 no effect, 100 complete control)
What Pigweed, Palmer plant response rating was measured for each of the following?
One number for each entry.

In the examples that follow, each entry is paired with its recorded Pigweed, Palmer plant response rating.
Dear colleague, I am looking for the recorded Pigweed, Palmer plant response rating of the following molecule: `Cc1ccc(-n2cnc(C3(O)CCCC3)n2)cc1C(=O)N1C[C@H](C)Oc2c(Cl)cccc21`
90

Try `CCc1ncn(-c2ccc(C)c(C(=O)N3C[C@H](COC)Oc4c(Cl)cccc43)c2)n1` next.
100

Try `Cc1cccc2c1O[C@@H](C)CN2C(=O)c1cccc(-n2cnc(C(C)(C)O)n2)c1` next.
100

Next, consider the following molecule.
Dear colleague, I am looking for the recorded Pigweed, Palmer plant response rating of the following molecule: Cc1ccc(-n2cnc(C(C)C)n2)cc1C(=O)N1CC(C(F)(F)F)Oc2c(Cl)cccc21 (single isomer, unassigned) [Compound 291]
100
